# SYSTEM_UNDER_TEST: GST-ANAC019 NAC domain (Arabidopsis thaliana, UniProt Q9C932 14-162)
# Sequence: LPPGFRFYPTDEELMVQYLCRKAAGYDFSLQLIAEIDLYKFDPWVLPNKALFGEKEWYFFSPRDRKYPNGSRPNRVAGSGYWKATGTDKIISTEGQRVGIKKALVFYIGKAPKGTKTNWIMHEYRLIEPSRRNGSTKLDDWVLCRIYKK
# PROCEDURE_DETAILS: universal protein binding microarray (PBM); high values mean tight binding
# ASSAY_CONDITIONS: protein: recombinant; tags: GST; chain copies: 2; dsDNA, one strand shown
# maps each entry to its binding signal
OBSERVABLE: binding signal

GCACGGCA ... 0.472 E-score
GCACGCTA ... 0.207 E-score
CCGTCAAA ... 0.164 E-score
GGAAGCAA ... 0.117 E-score
AGACGTGA ... 0.425 E-score
AGGGTAAT ... 0.116 E-score
TTAAGTAA ... 0.198 E-score
AGAAGGAA ... 0.0646 E-score
GACACGGC ... 0.42 E-score
CAAGCAAC ... 0.1 E-score
AATGCGTG ... 0.324 E-score
ACACGGCT ... 0.418 E-score
GTTCCTTA ... 0.141 E-score
AAGGGTAA ... 0.127 E-score
GTAAGGAA ... 0.23 E-score
GTCAACAC ... 0.138 E-score
AGGTAAGG ... 0.101 E-score
AGGGAAAG ... 0.129 E-score
CTTTCCTC ... 0.0599 E-score
GATACGTA ... 0.428 E-score
ATGGCGTG ... 0.196 E-score
GACCGGAA ... 0.213 E-score
AAACGTGT ... 0.269 E-score
ACGTTAGC ... 0.144 E-score
CACGCTAA ... 0.226 E-score
GCGTGTCA ... 0.231 E-score
ACGCAAAC ... 0.391 E-score
ACGGAACT ... 0.468 E-score
TTACGTAA ... 0.479 E-score
GTACGAAA ... 0.267 E-score
TACGCCAA ... 0.0981 E-score
CTGACCAC ... 0.0574 E-score
TTACTCAA ... 0.0697 E-score
AGGAAACG ... 0.0614 E-score
AGCGTGTA ... 0.0634 E-score
GGTGGTCA ... 0.0992 E-score
CACGTCAC ... 0.4 E-score
GAAGGTAA ... 0.158 E-score
CACGCTTC ... 0.184 E-score
AGGTTTCC ... 0.0846 E-score
AACGTAAC ... 0.15 E-score
ATAACGTG ... 0.0978 E-score
TACACGCA ... 0.415 E-score
CTACGTAA ... 0.352 E-score
CTTGCGTA ... 0.382 E-score
ACTAGTCA ... 0.0985 E-score
AACACGCA ... 0.415 E-score
CGTTTCCC ... 0.176 E-score
ATGTCGTG ... 0.419 E-score
CCACGCCA ... 0.0852 E-score
GCGTCAAC ... 0.0778 E-score
CTAAGCAA ... 0.0628 E-score
GGACGCAA ... 0.155 E-score
TGAAGGAA ... 0.0877 E-score
ACGTAAAC ... 0.427 E-score
GTACGCAA ... 0.445 E-score
GTTAAGCA ... 0.0907 E-score
CTACGTTA ... 0.152 E-score
AAGCGTAA ... 0.168 E-score
ATTCCTTA ... 0.0942 E-score
CTTACTTC ... 0.227 E-score
ATTGCGTG ... 0.466 E-score
TTACGCAA ... 0.447 E-score
ACGTAAGC ... 0.453 E-score
ATACGTTA ... 0.074 E-score
ACGCTATC ... 0.106 E-score
GGCGTGTA ... 0.198 E-score
GGAAGTAA ... 0.151 E-score
GCTGACCA ... 0.0761 E-score
ATACGGAA ... 0.436 E-score
CACGGCTC ... 0.42 E-score
ACACGACA ... 0.452 E-score
CACGAAAC ... 0.358 E-score
GAAGAAAC ... 0.123 E-score
ACGGCACC ... 0.425 E-score
GTTACTTA ... 0.0988 E-score
CACGCCAC ... 0.33 E-score
ACACTCCA ... 0.0899 E-score
AAGCAATC ... 0.21 E-score
ATACGTAT ... 0.281 E-score
ACGCAAAG ... 0.273 E-score
CTTACTTA ... 0.164 E-score

====

# SYSTEM_UNDER_TEST: GST-ANAC019 NAC domain (Arabidopsis thaliana, UniProt Q9C932 14-162)
# Sequence: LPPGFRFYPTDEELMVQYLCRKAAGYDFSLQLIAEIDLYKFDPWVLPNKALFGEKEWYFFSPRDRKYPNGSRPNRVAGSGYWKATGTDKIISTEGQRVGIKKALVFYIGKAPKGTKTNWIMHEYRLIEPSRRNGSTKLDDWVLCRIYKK
# PROCEDURE_DETAILS: universal protein binding microarray (PBM); high values mean tight binding
# ASSAY_CONDITIONS: protein: recombinant; tags: GST; chain copies: 2; dsDNA, one strand shown
OBSERVABLE: binding signal (E-score)

AGCGTAAA ... 0.0508
ACGGCAAT ... 0.409
AGTCGTGC ... 0.412
CAAGTAAC ... 0.134
ACACGATA ... 0.324
ACGCAACA ... 0.408
CACGTAAG ... 0.463
TGACGTAA ... 0.368
GAAGGAAC ... 0.172
ACGCCACC ... 0.145

====

# maps each entry to its binding signal
# SYSTEM_UNDER_TEST: GST-ANAC092(1-285) full length (Arabidopsis thaliana, UniProt Q9FKA0 1-285)
# Sequence: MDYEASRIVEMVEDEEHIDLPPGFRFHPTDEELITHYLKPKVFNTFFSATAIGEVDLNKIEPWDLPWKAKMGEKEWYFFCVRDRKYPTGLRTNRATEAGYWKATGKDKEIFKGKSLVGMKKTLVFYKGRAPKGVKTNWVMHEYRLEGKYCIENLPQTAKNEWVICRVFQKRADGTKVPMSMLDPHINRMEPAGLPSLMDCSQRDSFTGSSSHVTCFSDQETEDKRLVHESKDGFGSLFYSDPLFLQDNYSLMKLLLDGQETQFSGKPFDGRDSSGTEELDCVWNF
# PROCEDURE_DETAILS: universal protein binding microarray (PBM); high values mean tight binding
# ASSAY_CONDITIONS: protein: recombinant; tags: GST; chain copies: 2; dsDNA, one strand shown
OBSERVABLE: binding signal (E-score)

AAGCACGC ... 0.407
GACACGGC ... 0.387
TTAGTCAA ... 0.0778
GTATTGAC ... 0.147

====

# SYSTEM_UNDER_TEST: GST-NTL6(1-168) (Arabidopsis thaliana, UniProt Q9SCK6 1-168)
# Sequence (Q9SCK6 1-168): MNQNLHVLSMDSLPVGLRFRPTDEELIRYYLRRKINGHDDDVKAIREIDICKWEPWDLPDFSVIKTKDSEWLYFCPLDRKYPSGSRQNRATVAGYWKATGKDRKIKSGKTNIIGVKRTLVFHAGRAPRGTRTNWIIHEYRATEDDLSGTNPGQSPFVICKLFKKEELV
# PROCEDURE_DETAILS: universal protein binding microarray (PBM); transcription factors of Arabidopsis thaliana; high values mean tight binding
# ASSAY_CONDITIONS: protein: recombinant; tags: GST; chain copies: 2; dsDNA, one strand shown
So basically: is binding signal under 0.2 E-score? Then satisfied. Not under? Then not satisfied.

GAAGGAAA ... not satisfied
CACGCAAA ... satisfied
AGGAAAGG ... satisfied
AGTCAAGA ... satisfied
ACACACGC ... satisfied
GTTTCGTA ... satisfied
GAAGGTAA ... not satisfied
AGGTCAGA ... satisfied
CGTCAAAC ... satisfied
AATTACGT ... satisfied
ATACTTAA ... not satisfied
ATGTCAAC ... satisfied
AGTCAACA ... satisfied
ATAAGTCA ... satisfied
ATACGTAA ... satisfied
ATTGACTG ... satisfied
CTTGCTTC ... not satisfied
TTACGAAA ... satisfied
CTACGTTA ... satisfied
CACGAAAG ... satisfied
ACGCAAAG ... satisfied
ATTCCGTA ... satisfied
ATAACGTA ... satisfied
GTACGAAA ... satisfied
CTTACCCC ... not satisfied
GAAGGTCA ... satisfied
TAACGTAA ... satisfied
AAGTAAAG ... not satisfied
GAGGGTAA ... satisfied
ACGTAAAA ... satisfied
ATACGTAT ... satisfied
GTGGAGTA ... satisfied
TAGCGTAA ... satisfied
CCCTTGAC ... satisfied
AATACTTA ... not satisfied
ATAGCGTG ... satisfied
AAGACCAA ... satisfied
AGAGGGAA ... satisfied
TACACGCA ... satisfied
ATAAGTAA ... not satisfied
AGGAAACC ... satisfied
ACGTAATC ... satisfied
GAGGAAAA ... satisfied
ACGTAAGC ... satisfied
CCTTTCCC ... satisfied
CTAAGTCA ... satisfied
AATGGTCA ... satisfied
CAAGTAAC ... not satisfied
AGGTCAAA ... satisfied
TGACTGCA ... satisfied
ACGTAAAG ... satisfied
GCAAGTAA ... not satisfied
GTCAATGA ... satisfied
GTTGAGTA ... satisfied
AAGCAAAG ... not satisfied
GTAGCGTA ... satisfied
ATGCGTAC ... satisfied
ATTCCCTC ... satisfied
AAGGTCAA ... not satisfied
GTGAAGAA ... not satisfied
ATTGCTTG ... not satisfied
CACGCAAG ... satisfied
GAAGAAAC ... not satisfied
TGACTAAA ... satisfied
CAGGGAAA ... satisfied
GTTACTTA ... not satisfied
AATTCCGT ... satisfied
CACGGAAG ... satisfied
CGTCAACA ... satisfied
CACGTTTC ... satisfied
TACGCCAA ... satisfied
CACGTAAA ... satisfied
CTAAGGAA ... not satisfied
AAGGTAAC ... not satisfied
